Entry source: ChEMBL document CHEMBL4385605

So I've got a bunch of compounds here, and I need their Ki values.
system.under.test: Mu-type opioid receptor (Cavia porcellus, UniProt P97266)
Sequence (P97266 whole entry): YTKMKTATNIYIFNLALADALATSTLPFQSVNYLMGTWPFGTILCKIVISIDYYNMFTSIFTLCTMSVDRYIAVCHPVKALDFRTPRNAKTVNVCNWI
Please respond with the number in µM and leave the unit unwritten.

*Q* So what Ki did COC1O[C@]2(CC[C@@H](NCc3ccccc3)CC2)c2ccccc21 (stereo not given in full) get with Mu-type opioid receptor (Cavia porcellus, UniProt P97266)?
*A* 0.768

*Q* // same read-out, input: COC1Cc2ccccc2[C@]2(CC[C@H](N(C)CC3CCCCC3)CC2)O1 (stereo not given in full)
*A* 0.391

*Q* // same read-out, input: CCOC1Cc2ccccc2[C@]2(CC[C@H](N(C)CC3CCCCC3)CC2)O1 (stereo not given in full)
*A* 0.297

*Q* // same read-out, input: COC1Cc2ccccc2[C@]2(CC[C@@H](N(C)CC3CCCCC3)CC2)O1 (stereo not given in full)
*A* 0.299

*Q* // same read-out, input: CCOC1Cc2ccccc2[C@]2(CC[C@@H](NCC3CCCCC3)CC2)O1 (stereo not given in full)
*A* 0.185

*Q* // same read-out, input: COC1Cc2ccccc2[C@]2(CC[C@H](NCC3CCCCC3)CC2)O1 (stereo not given in full)
*A* 0.462

*Q* // same read-out, input: c1ccc2c(c1)CCO[C@]21CC[C@@H](NCC2CCCCC2)CC1
*A* 0.841

*Q* // same read-out, input: COC1Cc2ccccc2[C@]2(CC[C@@H](NCC3CCCCC3)CC2)O1 (stereo not given in full)
*A* 0.354

*Q* // same read-out, input: c1ccc2c(c1)CCO[C@]21CC[C@H](NCC2CCCCC2)CC1
*A* 0.114

*Q* // same read-out, input: COC1O[C@]2(CC[C@H](NCc3ccccc3)CC2)c2ccccc21 (stereo not given in full)
*A* 0.115
